# System: human monoclonal antibody CRJA
# Type: binding
Record form. Attribute: Binding of CRJA (10 μg/ml) to looped/cyclic peptide (PEPSCAN-ELISA signal). Fill in for each entry.
Numbers only.

Answered examples (3):
input.sequence: SLHNPYPDYRWLRTV
readout.value: 99
--
input.sequence: IDIHHLSCPNNLVVE
readout.value: 55
--
input.sequence: KESLVIISPSVADLD
readout.value: 83

Value sought for every listed sequence: Binding of CRJA (10 μg/ml) to looped/cyclic peptide (PEPSCAN-ELISA signal).
1. NGFTCTGVVTEAENY
2. MNGFTCTGVVTEAEN
3. TKESLVIISPSVADL
4. SGVAVSSTYCSTNHD
5. TIWMPENPRLGMSCD
6. CSGVAVSSTYCSTNH

82
78
88
90
102
94

----------
# System: human monoclonal antibody CRJA
# Assay type: binding
test.readout: Binding of CRJA (10 μg/ml) to looped/cyclic peptide (PEPSCAN-ELISA)
Answers are plain numbers.

Answered examples (3):
input.sequence: TCGFVDERGLYKSLK
readout.value: 100

input.sequence: DAHYKSVRTWNEILP
readout.value: 98

input.sequence: AMQTSNETKWCPPDQ
readout.value: 90

Value sought for every listed sequence: Binding of CRJA (10 μg/ml) to looped/cyclic peptide (PEPSCAN-ELISA).
1. EELVRKREECLDALE
2. ECLDALESIMTTKSV
3. WCPPDQLVNLHDFRS
4. CKLKLCGVLGLRLMD

1: 104; 2: 110; 3: 111; 4: 91

----------
Record form. Attribute: Binding of CR57 (10 μg/ml) to looped/cyclic peptide (PEPSCAN-ELISA). Fill in for each entry.
# Tested on: human monoclonal antibody CR57
# Assay type: binding
One number for each entry.

input.sequence: GIILGPDGNVLIPEM
readout.value: 108
--
input.sequence: ESIMTTKSVSFRRLS
readout.value: 80
--
input.sequence: LIPEMQSSLLQQHME
readout.value: 98

Value sought for every listed sequence: Binding of CR57 (10 μg/ml) to looped/cyclic peptide (PEPSCAN-ELISA).
1. EECLDALESIMTTKS
2. VRKREECLDALESIM
3. GPDGNVLIPEMQSSL
4. FFNGIILGPDGNVLI
5. RGKRASKGSETCGFV
6. CKLKLCGVLGLRLMD
7. FNKTLMEADAHYKSV
8. IILGPDGNVLIPEMQ

1. 105
2. 105
3. 141
4. 72
5. 101
6. 64
7. 124
8. 99

Value sought for every listed sequence: Binding of CR57 (10 μg/ml) to looped/cyclic peptide (PEPSCAN-ELISA).
1. RGLYKSLKGACKLKL
2. LDALESIMTTKSVSF
3. VSFRRLSHLRKLVPG
4. SKGSETCGFVDERGL

1. 96
2. 108
3. 141
4. 104

Value sought for every listed sequence: Binding of CR57 (10 μg/ml) to looped/cyclic peptide (PEPSCAN-ELISA).
1. KTLMEADAHYKSVRT
2. HLVVEELVRKREECL

[125, 110]

Query Binding of CR57 (10 μg/ml) to looped/cyclic peptide (PEPSCAN-ELISA) for SETCGFVDERGLYKS
58

----------
Record form. Attribute: Binding of CRJA to linear peptide (PEPSCAN-ELISA signal). Fill in for each entry.
# System: human monoclonal antibody CRJA
# Type: binding
One number for each entry.

input.sequence: EECLDALESIMTTKS
readout.value: 98

Value sought for every listed sequence: Binding of CRJA to linear peptide (PEPSCAN-ELISA signal).
1. SRVFPSGKCSGVAVS
2. QQHMELLESSVIPLV
3. ENYTNFVGYVTTTFK
4. YTIWMPENPRLGMSC
5. LKLCGVLGLRLMDGT
6. MEADAHYKSVRTWNE
7. LVVEDEGCTNLSGFS
8. SLKGACKLKLCGVLG

1. 107
2. 100
3. 80
4. 111
5. 100
6. 78
7. 58
8. 99

Value sought for every listed sequence: Binding of CRJA to linear peptide (PEPSCAN-ELISA signal).
1. NEILPSKGCLRVGGR
2. DACRAAYNWKMAGDP
3. GGRCHPHVNGVFFNG
4. VLIPEMQSSLLQQHM
5. STNHDYTIWMPENPR
6. VAMQTSNETKWCPPD
7. TFKRKHFRPTPDACR

1. 97
2. 83
3. 110
4. 78
5. 77
6. 97
7. 97

Value sought for every listed sequence: Binding of CRJA to linear peptide (PEPSCAN-ELISA signal).
1. GRCHPHVNGVFFNGI
2. RLMDGTWVAMQTSNE
3. DFRSDEIEHLVVEEL
4. TSNETKWCPPDQLVN
5. MPENPRLGMSCDIFT
6. FPSGKCSGVAVSSTY
7. VVEELVRKREECLDA
8. LVRKREECLDALESI

1: 100; 2: 99; 3: 86; 4: 88; 5: 107; 6: 93; 7: 90; 8: 107

Value sought for every listed sequence: Binding of CRJA to linear peptide (PEPSCAN-ELISA signal).
1. GACKLKLCGVLGLRL
2. KAYTIFNKTLMEADA
3. CGVLGLRLMDGTWVA
4. CTNLSGFSYMELKVG
5. VVEDEGCTNLSGFSY

1: 64; 2: 76; 3: 96; 4: 84; 5: 63

Value sought for every listed sequence: Binding of CRJA to linear peptide (PEPSCAN-ELISA signal).
1. DGTWVAMQTSNETKW
2. MNGFTCTGVVTEAEN
3. ETCGFVDERGLYKSL
4. NSRGKRASKGSETCG
5. LKGACKLKLCGVLGL
6. HNPYPDYRWLRTVKT

63
87
85
63
100
98

Value sought for every listed sequence: Binding of CRJA to linear peptide (PEPSCAN-ELISA signal).
1. ILAIKMNGFTCTGVV
2. DLDPYDRSLHSRVFP
3. LAIKMNGFTCTGVVT

1: 87; 2: 107; 3: 112

----------
Record form. Attribute: Binding of CR57 to linear peptide (PEPSCAN-ELISA signal). Fill in for each entry.
# Test system: human monoclonal antibody CR57
# Type: binding
Answers are plain numbers.

Answered examples (5):
input.sequence: LDKLGPWSPIDIHHL
system: human monoclonal antibody CR57
readout.value: 55

input.sequence: PPDQLVNLHDFRSDE
system: human monoclonal antibody CR57
readout.value: 107

input.sequence: LGMSCDIFTNSRGKR
system: human monoclonal antibody CR57
readout.value: 76

input.sequence: TKSVSFRRLSHLRKL
system: human monoclonal antibody CR57
readout.value: 83

input.sequence: PLVHPLADPSTVFKD
system: human monoclonal antibody CR57
readout.value: 93

Value sought for every listed sequence: Binding of CR57 to linear peptide (PEPSCAN-ELISA signal).
1. KSVSFRRLSHLRKLV
2. SPIDIHHLSCPNNLV
3. FRRLSHLRKLVPGFG
4. RLSHLRKLVPGFGKA
5. LDPYDRSLHSRVFPS
6. PDGNVLIPEMQSSLL
7. HLSCPNNLVVEDEGC

1. 108
2. 74
3. 90
4. 93
5. 99
6. 87
7. 65

----------
# Test system: human monoclonal antibody CR57
# Assay type: binding
Lab note: anything with Binding of CR57 (10 μg/ml) to looped/cyclic peptide (PEPSCAN-ELISA) at or over 100 counts as YES; the rest go in NO.

Reference set, count: 3
input.sequence: KREECLDALESIMTT
assigned.category: YES

input.sequence: SLKGACKLKLCGVLG
assigned.category: YES

input.sequence: WCPPDQLVNLHDFRS
assigned.category: YES

Does the reported Binding of CR57 (10 μg/ml) to looped/cyclic peptide (PEPSCAN-ELISA) for TWNEILPSKGCLRVG fall at or above the 100 mark?
YES

Does the reported Binding of CR57 (10 μg/ml) to looped/cyclic peptide (PEPSCAN-ELISA) for DFRSDEIEHLVVEEL fall at or above the 100 mark?
YES

Does the reported Binding of CR57 (10 μg/ml) to looped/cyclic peptide (PEPSCAN-ELISA) for HMELLESSVIPLVHP fall at or above the 100 mark?
YES

Does the reported Binding of CR57 (10 μg/ml) to looped/cyclic peptide (PEPSCAN-ELISA) for IFNKTLMEADAHYKS fall at or above the 100 mark?
YES

Does the reported Binding of CR57 (10 μg/ml) to looped/cyclic peptide (PEPSCAN-ELISA) for SLLQQHMELLESSVI fall at or above the 100 mark?
YES

----------
# Tested on: human monoclonal antibody CR57
# Type: binding
Param label: returns yes when Binding of CR57 to linear peptide (PEPSCAN-ELISA signal) < 80, returns no otherwise, including exact equality.

Reference set, count: 6
input.sequence: AGDPRYEESLHNPYP
assigned.category: yes

input.sequence: EGCTNLSGFSYMELK
assigned.category: yes

input.sequence: AVSSTYCSTNHDYTI
assigned.category: yes

input.sequence: KESLVIISPSVADLD
assigned.category: no

input.sequence: YRWLRTVKTTKESLV
assigned.category: yes

input.sequence: KRKHFRPTPDACRAA
assigned.category: yes

Problem: For the sequence NNLVVEDEGCTNLSG , is Binding of CR57 to linear peptide (PEPSCAN-ELISA signal) under 80?
yes

Problem: For the sequence LMDGTWVAMQTSNET , is Binding of CR57 to linear peptide (PEPSCAN-ELISA signal) under 80?
no

Problem: For the sequence LVNLHDFRSDEIEHL , is Binding of CR57 to linear peptide (PEPSCAN-ELISA signal) under 80?
yes

Problem: For the sequence LQQHMELLESSVIPL , is Binding of CR57 to linear peptide (PEPSCAN-ELISA signal) under 80?
no

Problem: For the sequence TWNEILPSKGCLRVG , is Binding of CR57 to linear peptide (PEPSCAN-ELISA signal) under 80?
no
